# System: Kappa-type opioid receptor (Cavia porcellus)
# Sequence (P41144 whole entry): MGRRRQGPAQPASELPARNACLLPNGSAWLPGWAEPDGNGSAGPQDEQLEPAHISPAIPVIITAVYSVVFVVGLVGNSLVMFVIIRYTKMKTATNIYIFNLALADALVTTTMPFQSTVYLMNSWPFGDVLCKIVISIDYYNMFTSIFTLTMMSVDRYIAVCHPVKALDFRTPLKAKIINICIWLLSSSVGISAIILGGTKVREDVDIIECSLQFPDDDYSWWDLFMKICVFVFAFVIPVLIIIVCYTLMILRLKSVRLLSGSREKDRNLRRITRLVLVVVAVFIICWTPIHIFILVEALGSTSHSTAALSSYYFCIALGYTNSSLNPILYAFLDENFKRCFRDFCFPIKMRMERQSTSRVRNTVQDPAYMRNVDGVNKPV
pKi: −log10 of the molar value.
Endpoint Name: pKi

Compound: CN1CCC2(c3cccc(O)c3)CC(=O)/C(=C/c3ccccc3)C1C2 (stereo in doubt; (-)-2)
System: Kappa-type opioid receptor (Cavia porcellus)
pKi: 6.05

Simply: CN1CCC2(c3cccc(O)c3)CC(=O)/C(=C/c3cccc(I)c3)C1C2 (stereo not given) , Kappa-type opioid receptor (Cavia porcellus), pKi = < 6.30

Record CN1CCC2(c3cccc(O)c3)CC(=O)/C(=C/c3ccc(I)cc3)C1C2 (single isomer, unassigned; (+)) has Kappa-type opioid receptor (Cavia porcellus) pKi equal to < 6.00

// compound CN1CCC2(c3cccc(O)c3)CC(=O)CC1C2 (single isomer, unassigned; (+)) , assay Kappa-type opioid receptor (Cavia porcellus), pKi value: 5.60

The observed pKi for CN1CCC2(c3cccc(O)c3)CC(=O)/C(=C/C3CC3)C1C2 (stereo not given) when tested with Kappa-type opioid receptor (Cavia porcellus) stands at < 6.30

Result for COc1cccc(C23CCN(C)C(C2)/C(=C\c2ccccc2)C(=O)C3)c1 (stereo in doubt; 10) , tested on Kappa-type opioid receptor (Cavia porcellus), pKi: < 6.00

Form field, pKi with Kappa-type opioid receptor (Cavia porcellus), item CN1CCC2(c3cccc(O)c3)CC(=O)/C(=C/c3cccc(Cl)c3)C1C2 (stereo in doubt; (-)-7) : < 6.30

GET /values?item= CN1CCC2(c3cccc(O)c3)CC(=O)/C(=C/c3ccc4ccccc4c3)C1C2 (stereo not given) &system= Kappa-type opioid receptor (Cavia porcellus) returns pKi: < 6.30

Record CN1CCC2(c3cccc(O)c3)CC(=O)/C(=C/c3ccc(Cl)cc3)C1C2 (single isomer, unassigned; (-)) has Kappa-type opioid receptor (Cavia porcellus) pKi equal to < 6.30
